Field: Ratio OD(Variant)/OD(WT). Provide a value for each of the binders that follow.
# target_desc: HRgpA-6H (Porphyromonas gingivalis) (UniProt P28784)
# assay_text: ELISA on coated HRgpA-6H

## Task Dear colleague, I am looking for the recorded Ratio OD(Variant)/OD(WT) of the following binder: KB001 mouse Fab FASEBA VH S30F (Fab, V domains shown) VH: EVQLKQSGPGLVAPSQSLSITCTVSGFSLFIYSVHWVRQPPGKGLEWLGMIWGGGSSDYNSALKSRLSISKDNSKSQVFLKMNSLQTDDTAMYYCARNGNFYAMDYWGQGTSVTVSS VL: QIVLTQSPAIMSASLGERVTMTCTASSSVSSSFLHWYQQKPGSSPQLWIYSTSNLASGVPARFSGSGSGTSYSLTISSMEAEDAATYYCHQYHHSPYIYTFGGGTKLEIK
## Result 0.868

## Task Dear colleague, I am looking for the recorded Ratio OD(Variant)/OD(WT) of the following binder: KB001 mouse Fab FASEBA VH S65T (Fab, V domains shown) VH: EVQLKQSGPGLVAPSQSLSITCTVSGFSLSIYSVHWVRQPPGKGLEWLGMIWGGGSSDYNSALKTRLSISKDNSKSQVFLKMNSLQTDDTAMYYCARNGNFYAMDYWGQGTSVTVSS VL: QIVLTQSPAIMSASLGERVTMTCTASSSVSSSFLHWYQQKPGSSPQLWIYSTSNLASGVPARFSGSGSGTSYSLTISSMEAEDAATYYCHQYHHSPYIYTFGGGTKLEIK
## Result 1.07

## Task Dear colleague, I am looking for the recorded Ratio OD(Variant)/OD(WT) of the following binder: KB001 mouse Fab FASEBA VH S61L (Fab, V domains shown) VH: EVQLKQSGPGLVAPSQSLSITCTVSGFSLSIYSVHWVRQPPGKGLEWLGMIWGGGSSDYNLALKSRLSISKDNSKSQVFLKMNSLQTDDTAMYYCARNGNFYAMDYWGQGTSVTVSS VL: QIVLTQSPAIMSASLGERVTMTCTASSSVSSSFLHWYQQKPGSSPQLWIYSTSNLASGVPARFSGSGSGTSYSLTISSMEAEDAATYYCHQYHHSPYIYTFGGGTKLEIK
## Result 0.908
